assay system: CYP3A4 (Homo sapiens, UniProt P08684)
Sequence (P08684 whole entry): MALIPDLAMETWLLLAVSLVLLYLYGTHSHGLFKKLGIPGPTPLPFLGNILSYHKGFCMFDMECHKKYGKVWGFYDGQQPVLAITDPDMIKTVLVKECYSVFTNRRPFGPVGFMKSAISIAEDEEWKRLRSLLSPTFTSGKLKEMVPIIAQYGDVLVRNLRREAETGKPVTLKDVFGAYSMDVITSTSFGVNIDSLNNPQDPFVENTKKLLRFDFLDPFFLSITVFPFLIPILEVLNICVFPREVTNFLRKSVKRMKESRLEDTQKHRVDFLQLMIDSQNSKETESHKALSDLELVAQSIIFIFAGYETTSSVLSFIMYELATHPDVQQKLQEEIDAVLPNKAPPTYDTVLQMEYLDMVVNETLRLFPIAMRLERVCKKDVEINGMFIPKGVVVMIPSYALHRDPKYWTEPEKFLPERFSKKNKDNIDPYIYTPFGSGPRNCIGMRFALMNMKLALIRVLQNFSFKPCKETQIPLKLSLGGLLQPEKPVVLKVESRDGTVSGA
method: Inhibition of recombinant human CYP3A4 expressed in insect cell microsomes at 10 uM using fluorescence probe as substrate measured after 15 to 45 mins in presence of NADPH by fluorescence assay relative to control
Format: ADME, Microsome
cond: time 15-45 min
readout name: inhibition at 10 µM (%)
Report the figure in % without appending any unit label.

The compound listed as Cc1cc(C(=O)O)nc(N2CCC(COc3ccccc3C(F)(F)F)C2)n1 (racemic) shows inhibition at 10 µM equal to 2.2

----------
assay system: Retinol-binding protein 4 (Homo sapiens)
method: Displacement of [3H]-all-trans-retinol from biotinylated human urine derived RBP4 measured after 16 hrs by scintillation proximity assay
readout name: pIC50
Recall that pIC50 is obtained by taking minus log10 of the concentration measured in molar.

| molecule | pIC50 |
| --- | --- |
| Cc1cc(C(=O)O)nc(N2CCC(COc3cccc(Cl)c3C(F)(F)F)C2)n1 (racemic) | 6.74 |
| Cc1cc(C(=O)O)nc(N2CCC(COc3ccc(F)cc3C(F)(F)F)C2)n1 (racemic) | 6.62 |

# next molecule below
Kindly note the recorded pIC50 for Cc1cc(C(=O)O)nc(N2CCC(COc3cc(C(F)(F)F)cc(C(F)(F)F)c3)C2)n1 (racemic) , which is 5.80
